5-HT2A receptor (Homo sapiens, UniProt P28223) data, read-out log10 of Ki
Counter-ions that a name gives are not always drawn.
value-kind: log10 of Ki (log10 of the value in nM)

molecule	value-kind	meas-value
N#Cc1ccc(-c2nc(C3CCCC3)nc3c2CCNCC3)cc1	log10 of Ki	1.70
COc1ccc(-c2nc(Cc3ccccc3)nc3c2CCN(Cc2ccccc2)C3)cc1	log10 of Ki	2.15
Cc1cc(-c2nc(C(C)C)nc3c2CCN(Cc2ccccc2)C3)cs1 [Example 86, hydrochloride]	log10 of Ki	2.00
Fc1ccc(-c2nc(C3CCCC3)nc3c2CNCC3)cc1	log10 of Ki	0.60
CC(C)c1nc2c(c(-c3ccsc3)n1)CCN(Cc1ccccc1)C2 [Example 87, hydrochloride]	log10 of Ki	2.78
CC(C)c1nc(-c2ccc(F)cc2)c2c(n1)C(C)CN(Cc1ccccc1)C2 (centres unmarked)	log10 of Ki	2.48
CNC1CCc2nc(C(C)C)nc(-c3ccc(F)cc3)c2C1 (centres unmarked) [Example 109, hydrochloride]	log10 of Ki	2.60
COc1ccc(-c2nc(C3CCCC3)nc3c2CNCC3)cc1	log10 of Ki	2.00
COc1ccc(-c2nc(Cc3ccccc3)nc3c2CCNC3)cc1	log10 of Ki	2.06
Cc1ccc(-c2nc(C(C)C)nc3c2CNCC3)cc1	log10 of Ki	2.00
FC(F)(F)c1ccc(-c2nc(Cc3ccccc3)nc3c2CCNCC3)cc1	log10 of Ki	-0.10
Cc1ccc(-c2nc(CC(C)C)nc3c2CNCC3)cc1	log10 of Ki	1.60
CCC(C)c1nc2c(c(-c3ccccc3F)n1)CNCC2 (centres unmarked) [Example 42, hydrochloride]	log10 of Ki	2.08
CC(C)c1nc2c(c(-c3ccc(Cl)cc3)n1)CNCC2	log10 of Ki	2.38
CC(C)c1nc2c(c(-c3ccccc3)n1)CCNC2	log10 of Ki	1.40
Fc1ccc(-c2nc(C3CC3)nc3c2CNCC3)cc1	log10 of Ki	1.40
CC(C)c1nc2c(c(-c3ccccc3)n1)CCCNC2	log10 of Ki	1.90
CC(C)c1nc2c(c(-c3ccc(F)cc3)n1)CN(C)CC2	log10 of Ki	1.51
N#Cc1ccc(-c2nc(Cc3ccc(F)cc3)nc3c2CNCC3)cc1	log10 of Ki	3.30
CCC(C)c1nc2c(c(-c3ccc(C)cc3)n1)CNCC2 (centres unmarked) [Example 4, hydrochloride]	log10 of Ki	1.30
CCC(C)c1nc2c(c(-c3ccc(OC)cc3)n1)CNCC2 (centres unmarked)	log10 of Ki	2.60
Fc1ccc(-c2nc(C3CCCC3)nc3c2CCNCC3)cc1	log10 of Ki	1.15
CC(C)c1nc(-c2ccccc2)c2c(n1)C(C)CNC2 (centres unmarked)	log10 of Ki	1.60
CC(C)c1nc(-c2ccccc2)c2c(n1)C(C)CN(Cc1ccccc1)C2 (centres unmarked)	log10 of Ki	3.30
Cc1nc2c(c(-c3ccccc3)n1)CCNCC2	log10 of Ki	2.86
CC(C)c1nc2c(c(-c3ccsc3)n1)CCN(C)C2 [Example 91, hydrochloride]	log10 of Ki	1.88
CC(C)c1nc2c(c(-c3ccc(F)cc3)n1)CCNCC2 [Example 50, hydrochloride]	log10 of Ki	0.57
CC(C)c1nc2c(c(-c3ccc(F)cc3)n1)CCC(O)C2 (centres unmarked)	log10 of Ki	2.34
CC(C)Cc1nc2c(c(-c3cccs3)n1)CNCC2	log10 of Ki	1.85
Fc1ccc(-c2nc(-c3ccccc3)nc3c2CNCC3)cc1	log10 of Ki	1.70
Cc1ccc(-c2nc(C(C)C)nc3c2CNCC3C)cc1 (centres unmarked) [Example 102, hydrochloride]	log10 of Ki	1.30
CC(C)c1nc2c(c(-c3ccc(F)cc3)n1)CCC(N1CCCC1)C2 (centres unmarked)	log10 of Ki	1.08
